Numbers sourced from patent US20260098037A1.

Assay: In vivo pharmacokinetic evaluation in mice
Details: mouse; ICR mice, iv, dose 0.5 mg/kg, plasma; read-out: AUC(0-24)
propertyName: AUC(0-t) (ng·h/mL)

# molecule, endpointResult
measured = [
    ("Cc1cc(-n2nc3c(c2-n2ccn(-c4ccc5c(c4F)N(C)C(=O)C54CC4)c2=O)[C@H](C)N(C(=O)c2cc4cc([C@H]5CCOC(C)(C)C5)ccc4n2[C@@]2(c4noc(=O)[nH]4)C[C@@H]2C)CC3)cc(C)c1F [Compound 14]", 2060),
    ("C[C@H]1c2c(nn(-c3ccc(F)c(C4CC4)c3)c2-n2ccn(-c3ccc4c(c3)N(C)C(=O)C43CC3)c2=O)CCN1C(=O)c1cc2cc([C@H]3CCOC(C)(C)C3)ccc2n1[C@@]1(c2noc(=O)[nH]2)C[C@@H]1C [Compound 18]", 2930),
]
